tested on: VEGF; experiment: Clone characterization: off-rate from VEGF at room temperature (Example 1); type: binding; details: 10 nM VEGF labeling, FIG. 3, FIG. 4
Sequence (P15692 207-315 limits assumed): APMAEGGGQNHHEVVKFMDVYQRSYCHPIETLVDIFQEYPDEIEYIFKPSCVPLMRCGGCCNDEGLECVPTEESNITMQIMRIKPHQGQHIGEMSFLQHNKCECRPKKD

# RESIDUES, dissociation rate (in words)
rows = [
    ("HQQLQYWDWIEAVVHNG (VEGF-binding peptide) [Clone L2.F3A.05]", "slow dissociation rates"),
    ("WKELRFWDWEGGNHKKCVT (VEGF-binding peptide) [Clone L2.F3B.12]", "slow dissociation rates"),
    ("NFGYGKWEWDYGKWLEKVG [Clone L2.F4.04]", "slow dissociation rates"),
]

Entry source: patent US20090035317A1
